Test system: blood clotting (heparinized sheep blood)
Assay: Net ACT initiated by platelet activation factor (PAF) and CaCl2 in heparinized sheep blood (Examples 6-11)
Details: single drug, 0.05 ng/mg; PAF & CaCl2; blood control 235 seconds
A collection of compounds and their measured net ACT
Write down the numeric answer in s and omit the unit.

Take a look at these entries with their results.
{"compound": "O=C(NC[C@H]1CN(c2ccc(N3CCOCC3=O)cc2)C(=O)O1)c1ccc(Cl)s1 [Rivaroxaban]", "data.value": 166}
{"compound": "CCCCS(=O)(=O)N[C@@H](Cc1ccc(OCCCCC2CCNCC2)cc1)C(=O)O [Tirofiban]", "data.value": 9}
{"compound": "CC1CNc2c(cccc2S(=O)(=O)N[C@@H](CCCNC(=N)N)C(=O)N2CC[C@@H](C)C[C@@H]2C(=O)O)C1 (stereo partly shown) [Argatroban]", "data.value": 56}

Please turn your attention to the following entry.
Prompt: blood clotting (heparinized sheep blood) / net ACT / CCCSc1nc(N[C@@H]2C[C@H]2c2ccc(F)c(F)c2)c2nnn([C@@H]3C[C@H](OCCO)[C@@H](O)[C@H]3O)c2n1 [Ticagrelor] : value?
Response: 18

Measured values drawn from patent US20260315653A1 for this set.
